assay: Single ascending oral dose study in healthy volunteers: plasma pharmacokinetics; type: in vivo, human; conditions: human, plasma, oral, 525 mg, 6 Hours Postdose; 525 mg; read-out: Plasma concentration, Geometric Mean
reportedProperty: concentration at 6 h (ng/mL)

compoundstructurestring=Cn1cc(S(=O)(=O)[C@@](C)(F)C2CCN(C(=O)Nc3ccon3)CC2)c(C(F)F)n1 recordedmeasurement=2160

---

assay: Food effect cross-over study, 200 mg (25 mg tablets), healthy volunteers: plasma pharmacokinetics; type: in vivo, human; conditions: human, plasma, oral, 6 hours postdose, Fasted, read-out: Plasma concentration, Median
reportedProperty: concentration at 6 h (ng/mL)

compoundstructurestring=Cn1cc(S(=O)(=O)[C@@](C)(F)C2CCN(C(=O)Nc3ccon3)CC2)c(C(F)F)n1 u=ng/mL recordedmeasurement=2320
